# TARGET_DESC: TS5-5 (ADAMTS-5) (Homo sapiens, UniProt Q9UNA0)
# Construct: ADAMTS-5 (i.e. TS5-5, residues 264–555); FLAG; made in house; host or cells: HEK293 cells (previously transfected stocks)
# Sequence (Q9UNA0 264-555): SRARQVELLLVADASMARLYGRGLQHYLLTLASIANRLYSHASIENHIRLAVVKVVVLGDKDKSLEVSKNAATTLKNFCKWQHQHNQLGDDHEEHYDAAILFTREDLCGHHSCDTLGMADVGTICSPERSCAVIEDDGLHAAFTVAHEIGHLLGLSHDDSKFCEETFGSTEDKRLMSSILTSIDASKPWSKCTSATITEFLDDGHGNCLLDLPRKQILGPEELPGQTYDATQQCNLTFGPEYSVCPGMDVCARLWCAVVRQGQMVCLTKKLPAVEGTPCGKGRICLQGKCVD
# ASSAY_NOTES: Determination of kinetic parameters (kcat and Km) for substrate cleavage by TS5-5, inner-filter corrected
# Assay type: biochemical
# ASSAY_SETUP: TS5-5, TNC buffer with 0.005% (v/v) Brij-35, 37 °C, corrected for inner filter effect; mean ± SEM from 3–4 independent experiments in triplicate
# Description: A solution of Abz-TESE↓SRGAIY-Dpa-KK-NH2/3/26 (5 mM) or 19/23 (1 mM) in DMSO underwent a 2-fold serial dilution with freshly prepared TNC buffer containing 0.005% (v/v) Brij-35. […] Fluorescence intensity was measured at 37 °C for 1 h with readings every 20 s. The rate of substrate cleavage was determined at each substrate concentration and expressed as the mean ± SEM in μM s^–1. […] This equation enabled the Km value to be determined. The catalytic rate constant kcat was determined from eq 3: [drawing 3] […]
Non-standard residues stand in square brackets, D forms with d. No end group written: not given here. Tyr(3-NO2) = N[C@@H](Cc1ccc(O)c([N+](=O)[O-])c1)C(=O)O; 2Abz = Nc1ccccc1C(=O)O
Measured Km, listed per entry.
Please state the figure in µM; there is no need to write the unit.

See these solved cases before continuing.
{"SUBSTANCE": "KY(NO2)TENESRGK(Abz)IYYKKG (K[Tyr(3-NO2)]TENESRGK(Abz)IYYKKG) [Compound 19]", "TARGET_DESC": "TS5-5 (ADAMTS-5) (Homo sapiens, UniProt Q9UNA0)", "Km (µM)": 30.5}
{"SUBSTANCE": "KY(NO2)SENESRGK(Abz)IYYKKG (K[Tyr(3-NO2)]SENESRGK(2Abz)IYYKKG) [Compound 26]", "TARGET_DESC": "TS5-5 (ADAMTS-5) (Homo sapiens, UniProt Q9UNA0)", "Km (µM)": 76.9}
{"SUBSTANCE": "KY(NO2)TESESRGK(Abz)IYYKKG (K[Tyr(3-NO2)]TESESRGK(Abz)IYYKKG) [Compound 3]", "TARGET_DESC": "TS5-5 (ADAMTS-5) (Homo sapiens, UniProt Q9UNA0)", "Km (µM)": 29.5}
{"SUBSTANCE": "KY(NO2)SESESRGK(Abz)IYYKKG (K[Tyr(3-NO2)]SESESRGK(Abz)IYYKKG) [Compound 23]", "TARGET_DESC": "TS5-5 (ADAMTS-5) (Homo sapiens, UniProt Q9UNA0)", "Km (µM)": 64.6}

Kindly consider the entry below.
Input line: Value lookup for Km; key = Abz-TESE↓SRGAIY-Dpa-KK-NH2 [current, reference compound]
Output line: 125

* * *

# TARGET_DESC: TS4-4 (ADAMTS-4) (Homo sapiens)
# Construct: TS4-4, TS5-5 = catalytic and disintegrin domains; made in house; host or cells: HEK293 cells (previously transfected stocks)
# Sequence (O75173 213-519 limits assumed): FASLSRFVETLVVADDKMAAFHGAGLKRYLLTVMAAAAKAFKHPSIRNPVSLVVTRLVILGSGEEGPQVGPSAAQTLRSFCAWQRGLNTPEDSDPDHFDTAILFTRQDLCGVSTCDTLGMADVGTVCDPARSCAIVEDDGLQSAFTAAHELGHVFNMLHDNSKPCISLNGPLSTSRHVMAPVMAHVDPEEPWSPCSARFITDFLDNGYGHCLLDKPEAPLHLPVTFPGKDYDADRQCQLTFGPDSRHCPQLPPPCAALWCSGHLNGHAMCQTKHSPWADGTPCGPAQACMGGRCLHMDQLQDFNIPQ
# ASSAY_NOTES: Selectivity studies: cleavage of FRET peptide substrates by TS4-4
# Format: biochemical
# ASSAY_SETUP: substrate 20 μM, TS4-4 50–90 nM, TNC buffer with 0.005% (v/v) Brij-35, 37 °C; mean of 3–4 independent experiments in triplicate
Non-standard residues stand in square brackets, D forms with d. No end group written: not given here. Tyr(3-NO2) = N[C@@H](Cc1ccc(O)c([N+](=O)[O-])c1)C(=O)O; 2Abz = Nc1ccccc1C(=O)O
ENDPOINT_NAME: rate of cleavage by TS4-4

See these solved cases before continuing.
{"SUBSTANCE": "KY(NO2)SENESRGK(Abz)IYYKKG (K[Tyr(3-NO2)]SENESRGK(2Abz)IYYKKG) [Compound 26]", "rate of cleavage by TS4-4": "0.08–0.10 μM s^–1 μM^–1"}
{"SUBSTANCE": "Abz-TESE↓SRGAIY-Dpa-KK-NH2 [current, reference compound]", "rate of cleavage by TS4-4": "0.090 μM s^–1 μM^–1"}
{"SUBSTANCE": "KY(NO2)TESESRGK(Abz)IYYKKG (K[Tyr(3-NO2)]TESESRGK(Abz)IYYKKG) [Compound 3]", "rate of cleavage by TS4-4": "0.08–0.10 μM s^–1 μM^–1"}

Kindly consider the entry below.
Input line: Value lookup for rate of cleavage by TS4-4; key = KY(NO2)TENESRGK(Abz)IYYKKG (K[Tyr(3-NO2)]TENESRGK(Abz)IYYKKG) [Compound 19]
Output line: 0.08–0.10 μM s^–1 μM^–1
